assay: Animal biodistribution (in vivo, i.v. injection); settings: rats, 2 min p.i.
readout name: Heart/Liver Counts/Gram ratio

O=[N][99Tc]([Cl])([Cl])[Cl].c1ccc(-c2ccccn2)nc1 [[^99 Tc(NO)Cl3 (Bipy)]] : 1.31

For CP(C)CCP(C)C.CP(C)CCP(C)C.N#[O+].[99Tc+].[Cl-].[Cl-] the compound record lists Heart/Liver Counts/Gram ratio as 0.38

Value of Heart/Liver Counts/Gram ratio reported for the compound O=[N][99Tc-]([Cl])([Cl])([Cl])[Cl] [[^99m TcNOCl4]^-] is 1.37

The reported Heart/Liver Counts/Gram ratio of the compound CC(=O)C=C(C)[O][99Tc-]([Cl])([Cl])([Cl])[N]=O [[^99 Tc(NO)Cl3 (acac)]^-] was 2.30

FYI, the data here is from patent US5081232A.
